The measured values listed here are drawn from paper PMC11126936.

Target Entity: T1, purified MST2 recombinant protein (UniProt Q13188)
T1 sequence (Q13188 1-491, species assumed, looked up): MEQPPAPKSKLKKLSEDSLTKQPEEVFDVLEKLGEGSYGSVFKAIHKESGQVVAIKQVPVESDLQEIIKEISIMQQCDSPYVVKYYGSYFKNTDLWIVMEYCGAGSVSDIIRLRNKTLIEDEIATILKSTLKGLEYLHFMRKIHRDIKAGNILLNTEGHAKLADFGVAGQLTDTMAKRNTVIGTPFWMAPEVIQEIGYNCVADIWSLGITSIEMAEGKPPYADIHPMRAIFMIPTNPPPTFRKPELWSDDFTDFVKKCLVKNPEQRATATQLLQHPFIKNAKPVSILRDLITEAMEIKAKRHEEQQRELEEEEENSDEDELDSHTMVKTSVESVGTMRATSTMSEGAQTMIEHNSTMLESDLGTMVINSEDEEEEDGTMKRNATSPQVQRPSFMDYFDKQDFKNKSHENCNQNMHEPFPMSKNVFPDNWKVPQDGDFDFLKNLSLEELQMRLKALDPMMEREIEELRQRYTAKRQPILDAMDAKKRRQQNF
Experiment Description: MST; Monolith NT.115, 25 °C, fluorescent-labeled protein; STRN3 and MST2 without CX
Readout Name: Kd (nM)
Answer format: numeric, nM implied, no suffix.

Task: Return Kd (reported value) for this binder: STRN3 (64–145) (domain or fragment, UniProt Q13033 64-145, looked up, STRN3 (striatin-3), amino acid 64-145) TIPGILHYIQHEWARFEMERAHWEVERAELQARIAFLQGERKGQENLKKDLVRRIKMLEYALKQERAKYHKLKYGTELNQGD
Result: 624
